# Tested on: CHO cell line that expresses an antibody
# assay_protocol: Batch experiment with the substances according to the invention (Example 1)
# Type: cell-based, Chinese hamster
# test_parameters: batch mode, day 11; substance 0.5-1 g/l; basal medium glucose 4.7 g/l, glutamine […]
measured_parameter: Specific glucose consumption (Gluc/VCD)
// no unit, no text: just the number

Example entries begin here.
Which Specific glucose consumption (Gluc/VCD) is reported with CHO cell line that expresses an antibody for this entry: CC(O)C(=O)[O-].[Na+] (stereo not drawn) [Sodium lactate] ?
0.05

Write down the reported Specific glucose consumption (Gluc/VCD) of O=C(O)CCCCC(=O)O [Adipic acid] , test system: CHO cell line that expresses an antibody.
0.08

Query the reported Specific glucose consumption (Gluc/VCD) for CHO cell line that expresses an antibody; item: O=C([O-])/C=C/C(=O)[O-].[Na+].[Na+] [Sodium fumarate]
0.03

Form entry - test system: CHO cell line that expresses an antibody; read-out: Specific glucose consumption (Gluc/VCD); compound: O=C(O)C(O)C(O)C(=O)O (stereo not drawn) [Tartaric acid]
0.20

Record lookup: for CHO cell line that expresses an antibody, what Specific glucose consumption (Gluc/VCD) belongs to CC(=O)C(=O)[O-].[Na+] [Sodium pyruvate] ?
0.06

Lab note: need Specific glucose consumption (Gluc/VCD) for NCCC[C@H](N)C(=O)O [Ornithine] on CHO cell line that expresses an antibody, anyone have it?
0.04

// lookup Specific glucose consumption (Gluc/VCD) | system=CHO cell line that expresses an antibody | key= NC(=O)NCCC[C@H](N)C(=O)O [Citrulline]
0.09

Notebook: pull reported Specific glucose consumption (Gluc/VCD) for CHO cell line that expresses an antibody, entry O=C(O)CC(O)C(=O)O (stereo not drawn) [Malic acid]
0.03

Attention now shifts to the item below.
Hi! What's the reported Specific glucose consumption (Gluc/VCD) for O=C([O-])CCC(=O)[O-].[Na+].[Na+] [Sodium succinate] on CHO cell line that expresses an antibody?
0.01

###

# Test system: CHO cell line that expresses an antibody
# assay_protocol: Batch experiment with the substances according to the invention (Example 1)
# Type: cell-based, Chinese hamster
# test_parameters: batch mode, day 6; substance 0.5-1 g/l; basal medium glucose 4.7 g/l, glutamine […]
measured_parameter: Specific Glutamin consumption (Gln/VCD)
Could you respond with only the numeric value?

What value of Specific Glutamin consumption (Gln/VCD) has been recorded for this entry: CC(=O)C(=O)[O-].[Na+] [Sodium pyruvate]
0.01

Next:
Query: Specific Glutamin consumption (Gln/VCD); subject: O=C([O-])CCC(=O)[O-].[Na+].[Na+] [Sodium succinate]
0.01

# query: Specific Glutamin consumption (Gln/VCD) of entry O=C(O)C(O)C(O)C(=O)O (stereo not drawn) [Tartaric acid]
0.00

Please report the recorded Specific Glutamin consumption (Gln/VCD) for NC(=O)NCCC[C@H](N)C(=O)O [Citrulline] .
0.01

Fill blank: measured Specific Glutamin consumption (Gln/VCD) of the molecule O=C([O-])/C=C/C(=O)[O-].[Na+].[Na+] [Sodium fumarate] is ____.
0.01

###

# Tested on: CHO cell line that expresses an antibody
# assay_protocol: Fed-batch experiment with the substances according to the invention (Example 2, Table 2)
# Type: cell-based, Chinese hamster
# test_parameters: day 0, fed-batch
# Description: Feed took place at regular intervals.
measured_parameter: Viable Cell Density (VCD)

Observe how each entry below is paired with its result.
For the compound CC(O)C(=O)[O-].[Na+] (stereo not drawn) [Sodium lactate] , what Viable Cell Density (VCD) is on record?
1.37 E5/ml

Name the recorded Viable Cell Density (VCD) for O=C(O)CC(O)C(=O)O (stereo not drawn) .
1.37 E5/ml

The record that follows has no Viable Cell Density (VCD) shown yet.
What does the data say about its Viable Cell Density (VCD)? Entry: O=C([O-])CCC(=O)[O-].[Na+].[Na+] [Sodium succinate]
1.37 E5/ml
